# System: SNB-75 CNS
# measurement-protocol: NCI tumour cell line growth inhibition, 48 h
TGI values, listed per item

Consider the reported TGI for these compounds:
[N-]=[N+]=Nc1nnc(CCCCc2nnc(N=[N+]=[N-])o2)o1 ... > 100 µM
Cc1cc(=O)[nH]c(S(=O)(=O)NC(=O)Nc2cccc(Cl)c2)n1 ... > 100 µM

Look up TGI: COc1ccc2c3c([nH]c2c1)[C@H](C=C(C)C)N1C(=O)[C@@H]2CCCN2C(=O)[C@@H]1C3
61 µM

---

# Test system: MCF7 breast
# measurement-protocol: NCI tumour cell line growth inhibition, 48 h
TGI values, listed per item
Report only the number, with the unit µM understood.

Consider the reported TGI for these molecules:
CCOC(=O)/C=C/C1=C(Br)[C@@]2(C)CC[C@@H]3c4ccc(O)cc4CC[C@H]3[C@@H]2C1 ... 26.7
O=C1CCCc2cc3c(cc21)CC1(C3)Cc2cc3c(cc2C1)C(=O)CCC3 ... 15.3
CCC1C[N+]2=C(c3cc(OC)c(OC)cc3CC2)c2c1cc1n2CCc2cc(OC)c(OC)cc2-1 (centres undefined) ... 13.3

// below: TGI requested for another molecule
Look up TGI: CN1CCN(c2ccc(NC(=O)c3cncnc3Nc3ccc4c(ccn4Cc4cccc(F)c4)c3)cc2)CC1
5.02

---

TGI values, listed per item
# Test system: A549 NSCLC
# measurement-protocol: NCI tumour cell line growth inhibition, 48 h

Consider the reported TGI for these molecules:
COc1c(OC)c(OC)c2c(=O)c(OC)c(-c3ccc4c(c3)OCO4)oc2c1OC ... > 100 µM
COc1ccc2c3c([nH]c2c1)[C@H](C=C(C)C)N1C(=O)[C@@H]2CCCN2C(=O)[C@@H]1C3 ... > 100 µM
CC(=O)NC(CCCCN(Cc1ccccc1)C(=O)N(C)N=O)C(=O)NCc1ccccc1 (stereo not drawn) ... > 100 µM
CCC12CN(C(=O)OC)C3C(Br)C1CCC(=O)C32 (stereo not drawn) ... > 100 µM
Nc1n[nH]c2cc(F)c([C@@H]3Nc4c(F)cc5[nH]ncc5c4[C@H]4C5CCC(C5)[C@@H]34)cc12 (stereo partly drawn) ... 13.9 µM
COc1ccc(/C=N/NC(=O)CSc2nc(-c3ccccc3)c(-c3ccccc3)[nH]2)cc1OC ... > 100 µM
COc1cc(/C=C2\CC3C4CC[C@H]5C[C@@H](O)CC[C@]5(C)C4CC[C@]3(C)\C2=N\O)cc(OC)c1OC (stereo partly drawn) ... > 100 µM
CS(=O)(=O)Nc1cccc(-c2ccc3ncnc(Nc4cncc(Cl)c4)c3c2)c1 ... > 100 µM

Look up TGI: CC(C(=O)c1ccc(O)cc1)C1(O)C(=O)Nc2c(Cl)cc(Cl)cc21 (stereo not drawn)
> 100 µM

Look up TGI: NC(CCSCCF)C(=O)O (stereo not drawn)
> 100 µM

---

# Tested on: MDA-MB-435
One label from this list, please: active, inactive

Use the examples below as a reference point.
CCOC(=O)CC1C(CNC(=O)NC)OC(n2cnc3c(NC(=O)Nc4ccccc4)ncnc32)C1O[Si](C)(C)C(C)(C)C (stereo not given) ... inactive
N#CC1=C(N)Oc2c(ccc3cccnc23)C1c1ccccc1 (stereo not given) ... active
N#Cc1cc2c(=S)[nH]c(=S)[nH]c2nc1SCc1ccccc1 ... inactive
COC(=O)C(Br)(C(=O)OC)C(Br)C(Br)C(Br)c1ccccc1 (stereo not given) ... inactive
O=C1Nc2cc(-c3ccc(O)cc3)ccc2/C1=C/c1ccc[nH]1 ... active

I'd appreciate the recorded outcome for CC12OC(C(=O)C13CCC3)C1C(=O)c3c(O)ccc(O)c3C(=O)C12 (stereo not given) from this test.
inactive

I'd appreciate the recorded outcome for O=C(/C=C/c1cc(O)ccc1O)c1ccc(Cl)cc1 from this test.
inactive

I'd appreciate the recorded outcome for COc1ccc(OC)c(-c2nc3sc(C)cn3c2/C=C2\C(=O)N(C)c3ccccc32)c1 from this test.
inactive

I'd appreciate the recorded outcome for Nc1nc(N)c2cc(S(=O)(=O)c3ccccc3)ccc2n1 from this test.
inactive

I'd appreciate the recorded outcome for CCC1C[N+]2=C(c3cc(OC)c(OC)cc3CC2)c2c1cc1n2CCc2cc(OC)c(OC)cc2-1 (stereo not given) from this test.
inactive
